# assay protocol: activity coefficient (dimensionless); of the first substance listed, at infinite dilution; xn = mol fraction of the nth substance listed
# details: 368.15 K; 101 kPa; Liquid; Chromatography; x1 = 0
Simple rule here: activity coefficient less than 30 is label 1, otherwise label 0.

Use the examples below as a reference point.
molecule	qualitative label
C=CCCCCCC [oct-1-ene] + CCCCn1cc[n+](C)c1.COP(=O)([O-])OC	label 1
CCCCCCCCC [nonane] + CCCCn1cc[n+](C)c1.CS(=O)(=O)[O-]	label 0
CCOC(C)(C)C [2-ethoxy-2-methylpropane] + CCCCn1cc[n+](C)c1.[Cl-]	label 0
CC(C)=O [acetone] + CCCCn1cc[n+](C)c1.[Cl-]	label 1

Okay, now this molecule:
Lab log: compare recorded activity coefficient with 30; is it strictly lower for CCC(=O)CC [pentan-3-one] + CCCCn1cc[n+](C)c1.[Cl-] ?
label 1
